Where these numbers come from: patent US11685739B2

Conditions: human, 1 h, pH 7.4
Structures can show the parent of a compound that is named as a salt.
property.label: The cumulative amount of test compounds (mg)

compound | unit.name | The cumulative amount of test compounds
CC(C(=O)OCCN(C)C)c1cccc(Oc2ccccc2)c1.Cl (centres unmarked) | mg | 1.15
CC(C)OC(=O)[C@H](Cc1ccc(OC(=O)c2ccccc2)c(OC(=O)c2ccccc2)c1)NC(=O)OC1CCN2CCCCC12 (some centres unmarked) [Compound-22, acetate] | mg | 0.45
CC(C)OC(=O)[C@H](Cc1ccc(OC(=O)C(C)C)c(OC(=O)C(C)C)c1)NC(=O)C1CCN2CCCCC2C1.Cl (some centres unmarked) | mg | 0.48
CC(C)OC(=O)[C@H](Cc1ccc(OC(=O)c2ccccc2)c(OC(=O)c2ccccc2)c1)NC(=O)C1CCNCC1 [Compound-18, hydrochloride] | mg | 0.52
CC(C)OC(=O)[C@H](Cc1ccc2c(c1)OC(=O)C(N)CC(=O)O2)NC(=O)OC(C)OC(=O)C(C)C (some centres unmarked) [Compound-20(b), hydrobromide] | mg | 0.43

1: CCCCC(=O)Oc1ccc(C[C@H](N)C(=O)OC(C)C)cc1OC(=O)CCCC.Cl
2: CC(C(=O)SCCN(C)C)c1cccc(Oc2ccccc2)c1.Cl (centres unmarked)
3: NC(Cc1ccc(O)c(O)c1)C(=O)O (centres unmarked)
[in] Please rank these compounds by The cumulative amount of test compounds in descending order. Reply format: the labels, ordered as requested.
[out] 2, 1, 3
